A collection of compounds and their measured IC50
Biological target: PDGFRβ (Rattus norvegicus (Rat), UniProt Q05030)
Sequence (Q05030 whole entry, looked up): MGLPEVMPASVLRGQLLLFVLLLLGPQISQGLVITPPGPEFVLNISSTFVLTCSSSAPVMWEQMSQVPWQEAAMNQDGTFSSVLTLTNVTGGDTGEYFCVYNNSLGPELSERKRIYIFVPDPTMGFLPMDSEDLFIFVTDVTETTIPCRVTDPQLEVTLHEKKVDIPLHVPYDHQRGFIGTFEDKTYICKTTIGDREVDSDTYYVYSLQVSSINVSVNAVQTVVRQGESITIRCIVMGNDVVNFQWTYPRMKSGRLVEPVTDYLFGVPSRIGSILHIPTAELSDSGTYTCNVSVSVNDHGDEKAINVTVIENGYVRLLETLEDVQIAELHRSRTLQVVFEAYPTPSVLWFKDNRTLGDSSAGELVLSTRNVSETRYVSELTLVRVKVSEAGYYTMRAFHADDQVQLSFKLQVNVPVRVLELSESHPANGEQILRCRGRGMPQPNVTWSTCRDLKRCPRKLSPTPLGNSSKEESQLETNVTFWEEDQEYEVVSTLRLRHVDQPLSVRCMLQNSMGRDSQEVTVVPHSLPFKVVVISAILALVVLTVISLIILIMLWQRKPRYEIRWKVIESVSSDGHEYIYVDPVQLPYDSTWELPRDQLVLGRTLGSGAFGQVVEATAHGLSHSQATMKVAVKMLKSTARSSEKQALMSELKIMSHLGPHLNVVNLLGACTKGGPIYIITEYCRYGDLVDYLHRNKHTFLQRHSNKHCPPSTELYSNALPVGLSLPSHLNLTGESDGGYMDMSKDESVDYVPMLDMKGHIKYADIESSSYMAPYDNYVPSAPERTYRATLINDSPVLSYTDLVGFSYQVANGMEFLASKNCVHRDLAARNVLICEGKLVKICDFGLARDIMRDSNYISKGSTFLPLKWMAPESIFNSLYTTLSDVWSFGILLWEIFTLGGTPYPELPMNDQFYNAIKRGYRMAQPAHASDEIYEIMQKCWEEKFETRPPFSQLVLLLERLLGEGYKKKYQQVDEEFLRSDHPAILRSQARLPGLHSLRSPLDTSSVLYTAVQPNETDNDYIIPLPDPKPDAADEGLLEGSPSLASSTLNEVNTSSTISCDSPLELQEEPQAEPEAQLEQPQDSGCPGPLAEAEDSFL
Assay: PDGFRβ Cellular Assay (PDGFRb P-Y751 HTRF, PDGF-BB stimulated A10 cells)
Format: cell-based
Conditions: A10 cells, 3 hours compound, 15 ng/mL PDGFbb for 10 minutes; read-out: PDGFR Cellular IC50
Description: Cell Culture and Preparation: Cells are cultured according to ATCC procedure (5) with the addition of the antibiotic penicillin-streptomycin. If working from frozen, cells should be thawed according to ATCC procedure. Depending on the cell density of frozen vial, cells will need time to recover from thaw. An 80% confluent T75 flask should be enough for one 384 well plate. […] Step 5: Detection: The plate is read using the HTRF module on the BMG Pherastar. Data is analyzed using Genedata Screener. […]
Report the value in nM with no unit label.

Inquiry: # input compound: COCCn1cc(Nc2ncc3c(Nc4cc(NC(=O)CN5CCC56CCC6)cnc4C)nn(C)c3n2)cn1 [Example 123] ; wanted: its IC50
Reply text: 4.7

Inquiry: Could you do the same for Cc1ccc(C(=O)NCCN2CCC3(CC3)C2)cc1Nc1nn(C)c2nc(Nc3cnn(C)c3)ncc12 [Example 67] , please?
Reply text: 9.8

Inquiry: Could you do the same for Cc1ncc(C(=O)NCCN(CCCO)C2CCCC2)cc1Nc1nn(C)c2nc(Nc3cnn(C)c3)ncc12 [Example 96] , please?
Reply text: 139

Inquiry: Could you do the same for Cc1ncc(C(=O)NCCN2C[C@H](C)O[C@@H](C)C2)cc1Nc1nn(C)c2nc(Nc3ccnc(N4CCC(CCO)CC4)c3)ncc12 [Example 112] , please?
Reply text: 84.4

Inquiry: Could you do the same for Cc1ncc(C(=O)NCCN2C3CCC2CC3)cc1Nc1nn(C)c2nc(Nc3cnn(C)c3)ncc12 [Example 153] , please?
Reply text: 113

Inquiry: Could you do the same for Cc1nn(C)cc1Nc1ncc2c(Nc3cc(C(=O)NCCN4CCC(C)(C)C4)cnc3C)nn(C)c2n1 [Example 159] , please?
Reply text: 60.7

Inquiry: Could you do the same for Cc1ncc(C(=O)NCCN2C[C@@H](C)O[C@@H](C)C2)cc1Nc1nn(C)c2nc(Nc3cnn(C)c3)ncc12 [Example 91] , please?
Reply text: 44.3

Inquiry: Could you do the same for Cc1ncc(C(=O)NCCC2CCCCC2)cc1Nc1nn(C)c2nc(Nc3ccc(CC#N)nc3)ncc12 [Example 105] , please?
Reply text: 9.7

Further cases:
Inquiry: # input compound: Cc1ncc(C(=O)NCCN2CCCC2(C)C)cc1Nc1nn(C)c2nc(Nc3ccc(=O)n(C)n3)ncc12 [Example 31] ; wanted: its IC50
Reply text: 390

Inquiry: Could you do the same for Cc1ncc(C(=O)NCCN2CCCCC23CC3)cc1Nc1nn(C)c2nc(Nc3cncnc3)ncc12 [Example 56] , please?
Reply text: 9.7

Inquiry: Could you do the same for Cc1ncc(NC(=O)CN(CCO)C2CCCC2)cc1Nc1nn(C)c2nc(Nc3cnn(C)c3)ncc12 [Example 79] , please?
Reply text: 23.5

Inquiry: Could you do the same for Cc1ncc(C(=O)NCCN2CCCOCC2)cc1Nc1nn(C)c2nc(Nc3cnn(C)c3)ncc12 [Example 17] , please?
Reply text: 68.3

Inquiry: Could you do the same for Cc1ncc(C(=O)NCCN2CCCC2(C)C)cc1Nc1nn(C)c2nc(Nc3ccnc(N4CCOCC4)c3)ncc12 [Example 101] , please?
Reply text: 15.5
